// provenance: paper PMC8097376

# systemTested: SARS-CoV-2 spike receptor-binding domain (RBD) (SARS-CoV-2, UniProt P0DTC2 319-541)
pIC50: −log10 of the molar value.
Lab note: compare pIC50 against 8. Equal or greater, write t. Smaller, write f.

Reported pIC50 reaches at least 8 for nanobody NM1224 (VHH) VHH: DVQLVESGGSLVQPGGSLRLSCETSRSSLDAYAIGWFRQAPGKEREGVASISSSSMRTEYADSVKGRFTISRDNAKNTAYLDMNSLKPEDTAVYYCAAAGEYGRAWPGLDWYEFEYEGPGSPVTVSS ? f

Is the recorded value of pIC50 equal to or greater than 8 for this binder? nanobody NM1229 (VHH) VHH: EVQLQESGGGLVQPGESLRLSCAASGRTHDWYTMGWFRQAPGKEREFVARINWSSGMTYYADSVKGRFTISRDNPKNTVYLQMNSLTPDDTAVYYCNVHPFTSPDYWGQGTRVTVSS f

Hi, just wondering whether nanobody NM1222 (VHH) VHH: EVQLVESGGGLVRPGGSLRLSCVGSGFTFSGYAINWYRQAPGKALELVAGISNAGDLTHYEEAMKGRVAISRANDKNTVYLQMDDLKPEDTAVYRCHAPGVRVGTGERNDVWGQGAQVTVSS shows pIC50 of 8 or higher. t

For this binder, is measured pIC50 8 or higher? nanobody NM1227 (VHH) VHH: EVQLVESGGGLVQPGGSLTLSCETSGRHFDIDDMGWYRQAPGKQRELVACITTESSTTYADAVKGRFTISRDNPDNTVYLQMTNLKPEDTAVYYCNAEMHPRSLDYALGNRDYWGQGAPVTVSS t
